pKd values by entry
- target.or.test.system: T1, EsCas13d, nuclease-dead (Eubacterium siraeum, UniProt B0MS50, R295A;H300A;R849A;H854A)
- T1 sequence: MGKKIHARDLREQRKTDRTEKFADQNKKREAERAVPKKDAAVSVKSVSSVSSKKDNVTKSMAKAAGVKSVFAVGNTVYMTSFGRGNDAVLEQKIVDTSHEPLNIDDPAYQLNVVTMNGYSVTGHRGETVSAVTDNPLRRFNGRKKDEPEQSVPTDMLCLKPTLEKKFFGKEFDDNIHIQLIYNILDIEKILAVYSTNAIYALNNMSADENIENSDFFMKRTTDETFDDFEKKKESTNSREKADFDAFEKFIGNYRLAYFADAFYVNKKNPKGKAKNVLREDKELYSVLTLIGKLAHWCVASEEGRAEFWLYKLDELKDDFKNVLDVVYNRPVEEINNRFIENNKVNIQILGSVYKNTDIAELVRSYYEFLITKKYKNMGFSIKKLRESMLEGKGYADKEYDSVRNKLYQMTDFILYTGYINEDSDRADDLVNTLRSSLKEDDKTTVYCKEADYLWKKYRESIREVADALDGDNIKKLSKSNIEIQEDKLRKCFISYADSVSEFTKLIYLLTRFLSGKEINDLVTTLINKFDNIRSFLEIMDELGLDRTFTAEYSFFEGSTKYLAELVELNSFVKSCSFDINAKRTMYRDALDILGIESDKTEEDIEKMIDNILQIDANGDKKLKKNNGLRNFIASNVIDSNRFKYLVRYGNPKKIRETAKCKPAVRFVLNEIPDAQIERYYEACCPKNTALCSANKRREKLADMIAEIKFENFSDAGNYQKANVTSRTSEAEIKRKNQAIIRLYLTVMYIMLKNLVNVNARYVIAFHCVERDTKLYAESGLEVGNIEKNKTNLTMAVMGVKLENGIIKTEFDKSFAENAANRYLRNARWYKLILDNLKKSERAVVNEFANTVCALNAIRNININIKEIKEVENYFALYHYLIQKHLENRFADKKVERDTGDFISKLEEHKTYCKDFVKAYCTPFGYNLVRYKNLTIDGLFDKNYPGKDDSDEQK
- procedure.details: crRNA (strand 1, pre-loaded); Mg2+; 40 mM Tris-HCl pH 7.5, 150 mM NaCl, 6 mM MgCl2, 1 mM DTT, 0.1% Tween-20, 0.2 mg/ml BSA; 25 C; 10 min per concentration, then washed
- protocol.conditions: tags: His6-TwinStrep-SUMO cleaved; N-terminal SNAP kept (SNAP-Surface 488); label: 3' end held by stalled T7 RNA polymerase
As a rule, pKd stands for the negative log10 of the concentration, concentration in M.

stdin: Value lookup for pKd; key = target 3 G3U,C6G (mixed) RNA 1: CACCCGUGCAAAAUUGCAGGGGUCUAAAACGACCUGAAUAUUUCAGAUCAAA RNA 2: GGGAAUGGAUCCACAUCUACGAAUUCGUUUUUGAUCUGAAAUAUUGAGUUCUGCAGAUCGGAAGAGCACACGU
stdout: 7.25

***
stdin: Value lookup for pKd; key = target 1 insC 3' of 9 (mixed) RNA 1: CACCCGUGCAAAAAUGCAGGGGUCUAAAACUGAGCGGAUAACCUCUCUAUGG RNA 2: GGGAAUGGAUCCACAUCUACGAAUUCGUACCAUAGAGAGGUUACUCCGCUCACCGAGAUCGGAAGAGCACACGU
stdout: 7.97

These measurements were taken from paper PMC10786891.
